- study-system: T1, Biotinylated Human C5aR Peptide (2nd loop), peptide 23 (human, N-terminal biotin)
- T1 construct: immobilised on a streptavidin sensor chip for BIACore; also called Biotinylated-Peptide 23; Biot-peptide
- T1 peptide: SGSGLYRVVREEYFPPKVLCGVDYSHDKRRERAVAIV
- assay-protocol: SPR (BIACore 2000), biotinylated peptide 23 on SA chip, mAb as analyte
attribute-measured: Ka (M⁻¹)
Note: unit M⁻¹ is implicit; provide only the numeric part.

Reference set, count: 3
[
  {
    "binder": "MAb 8G7 (antibody, V domains shown, Mouse monoclonal antibody from a hybridoma (ECACC 06081803); also called 8G7-M6) VH: DIQLQESGPGLVKPSQSLSLTCSVTGYSITSGHYWNWIRQLPGNKMEWMGHISNDGSNRYNPSLKNRISITRDTSKNQFFLKLNSVTTEDTATYYCALFYFAYASFAYWGQGTLVTVSA VL: DVVMTQTPLSLPVSLGDQASISCRSSQSLLHSNGNTYLHWYLQKPGQSPKLLIYKVSTRFSGVPDRFSGSGSGADFTLQISRVEAEDLGVYLCSQSTHVPPTFGAGTKLVLT",
    "unit-symbol": "M⁻¹",
    "Ka": "6.3e+08"
  },
  {
    "binder": "MAb 7F3 (antibody, V domains shown) VH: QVQLQQSGPELVKPGASVKISCKASGYAFSNSWMNWVKQRPGKGLEWIGRIYPGDGDTKYNGKFKGKATLTADKSSSTAYMQLSSLTSEDSAVYFCARFLLISTVTAVDYWGQGTTLTVSS VL: DVVMTQSPLSLPVSLGNQASISCRSSQSLVHSNGNTYLHWYLQKPGQSPKLLIYKVSNRFSGVPDRFSGSGSGTDFSLKISRVEAEDLGVYFCSQSTLVPLTFGAGTKLELK",
    "unit-symbol": "M⁻¹",
    "Ka": "1.4e+09"
  },
  {
    "binder": "MAb 3C5 (antibody, V domains shown) VH: DVQLQESGPGLVKPSQSLSLTCSVTGYSITSGNYWNWIRQFPGKKLEWMGHISYDGNNKYNPSLKNRISITRDTSKNQFFLRLNSVTAEDTAAYYCALFYFDYASFTYWGQGTLVTVSA VL: DVVMTQTPLSLPVSLGDQASISCRSSQSLVHSNGNTYLHWYLRKPGQSPKLLIYKVSNRFSGVPDRFSGSGSGTDFTLKISRVEAEDLGVYFCSQSTHVPPTFGAGTKLELK",
    "unit-symbol": "M⁻¹",
    "Ka": "2.1e+09"
  }
]

With those in mind, consider the next binder.
Quick one: Ka for MAb 7H3 (antibody, V domains shown, Mouse monoclonal antibody from a hybridoma (ECACC 06081802); also called 7H3-N9) VH: EVKLEESGGGLVQPGGSMKLSCVASGFTFSDAWMDWVRQSPEKGLEWVAGIRNRANNHATYYVASVKGRFTVSRDDSKSSVYLQMNSLRAEDAGIYYCTRGDGYFFDYWGQGTTLTVSS VL: DVVLTQTPLSLSVSLGDQASISCRSGQSLVHSNGNTYLHWYLQKPGQSSKLLIYKVSNRLSGVPDRFSGSGSGTDFTLKISRVEAEDLGVYFCSQTTHVPPTFGGGTKLEIK ? 5.97e+07

src = patent US20100129346A1
